target: CDK9 (Homo sapiens, UniProt P50750); construct: endogenous in cells; host or cells: MDA-MB-231; assay: CDK protein degradation activity (Western blotting), CDK9; format: cell-based; conditions: MDA-MB-231 cells, 0.1 μM, 16 hours, Western blot
Sequence (P50750 whole entry): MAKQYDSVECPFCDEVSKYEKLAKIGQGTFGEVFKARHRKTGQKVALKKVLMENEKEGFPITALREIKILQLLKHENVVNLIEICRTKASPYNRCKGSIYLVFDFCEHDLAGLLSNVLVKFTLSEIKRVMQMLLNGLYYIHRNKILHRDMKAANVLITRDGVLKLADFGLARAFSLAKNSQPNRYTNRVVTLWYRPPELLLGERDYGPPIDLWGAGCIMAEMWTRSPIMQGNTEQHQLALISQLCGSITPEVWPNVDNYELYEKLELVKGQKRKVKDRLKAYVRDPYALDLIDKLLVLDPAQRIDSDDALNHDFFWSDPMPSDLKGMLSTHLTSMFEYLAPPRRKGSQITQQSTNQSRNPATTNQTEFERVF
quantity: Enzyme degradation CDK9 (% remaining) @ 0.1 μM

Notebook: O=C1CC[C@H](N2C(=O)c3ccc(N4CCC(C(=O)N5CCC6(CC5)CC(N5CCN(c7ccc(Nc8ncnc9c8ncn9[C@H]8C[C@@H](NC(=O)c9c(Cl)cccc9Cl)C8)cc7)CC5)C6)CC4)cc3C2=O)C(=O)N1 , Enzyme degradation CDK9 (% remaining) @ 0.1 μM read as 10/10/10%

Entry O=C1CC[C@H](N2C(=O)c3cccc(NCC(=O)N4CCC(CN5CCN(c6ccc(Nc7ncnc8c7ncn8C7CC(NC(=O)c8cccc(Cl)n8)C7)cc6)CC5)CC4)c3C2=O)C(=O)N1 (some centres unmarked) , Enzyme degradation CDK9 (% remaining) @ 0.1 μM reported as 0/0/0%

Enzyme degradation CDK9 (% remaining) @ 0.1 μM recorded for this compound, O=C1CC[C@H](n2nnc3ccc(N4CCC(CN5CCN(c6ccc(Nc7ncnc8c7ncn8C7CC(NC(=O)c8cccc(F)n8)C7)cc6)CC5)CC4)cc3c2=O)C(=O)N1 (some centres unmarked) , is 0/0/0%

Reported Enzyme degradation CDK9 (% remaining) @ 0.1 μM ( O=C1CC[C@H](N2C(=O)c3ccc(N4CCC(C(=O)N5CCC(CCCN6CCN(c7ccc(Nc8ncnc9c8ncn9C8CC(NC(=O)Cc9ccccc9)C8)cc7)CC6)CC5)CC4)cc3C2=O)C(=O)N1 (some centres unmarked) ) = 10/10/10%

Cc1cccc(C(=O)NC2CC(n3cnc4c(NCc5cccc(N6CCN(CC7CCN(C(=O)CNc8cccc9c8C(=O)N([C@H]8CCC(=O)NC8=O)C9=O)CC7)CC6)c5)ncnc43)C2)n1 (some centres unmarked) yielded Enzyme degradation CDK9 (% remaining) @ 0.1 μM of 0/0/0%

----------
target: CDK9 (Homo sapiens); construct: endogenous in cells; host or cells: MDA-MB-231; assay: CDK protein degradation activity (Western blotting), CDK9; assay type: cell-based; settings: MDA-MB-231 cells, 10 μM, 16 hours, Western blot
Please go through the items and note down their Enzyme degradation CDK9 (% remaining) @ 10 μM.

Entry Cc1cccc(C(=O)NC2CC(n3cnc4c(NCc5ccc(N6CCN(CC7CCN(C(=O)CNc8ccc9c(c8)C(=O)N([C@H]8CCC(=O)NC8=O)C9=O)CC7)CC6)cc5)ncnc43)C2)n1 (some centres unmarked) [Compound 153] , Enzyme degradation CDK9 (% remaining) @ 10 μM reported as 0/0/0%

Noted for O=C1CCC(N2C(=O)c3ccc(NCC(=O)N4CCC(CN5CCC(CNc6ncnc7c6ncn7[C@H]6C[C@@H](NC(=O)c7c(Cl)cccc7Cl)C6)CC5)CC4)cc3C2=O)C(=O)N1 (some centres unmarked) [Compound 171] : its Enzyme degradation CDK9 (% remaining) @ 10 μM reads 0/0/0%

Entry O=C1CC[C@H](N2C(=O)c3ccc(N4CC(C(=O)N5CCC(CN6CCC(CCNc7ncnc8c7ncn8C7CC(NC(=O)c8c(Cl)cccc8Cl)C7)CC6)CC5)C4)cc3C2=O)C(=O)N1 (some centres unmarked) [Compound 399] ; Enzyme degradation CDK9 (% remaining) @ 10 μM = 0/0/0%

Looking up O=C1CC[C@@H](c2ccc(OCC(=O)N3CCC4(CC3)CC(N3CCN(c5ccc(Nc6ncnc7c6ncn7[C@H]6C[C@@H](NC(=O)c7cccc(C(F)(F)F)n7)C6)cc5)CC3)C4)cc2)C(=O)N1 [Compound 439] , I found its Enzyme degradation CDK9 (% remaining) @ 10 μM recorded as 10/10/10%

# Enzyme degradation CDK9 (% remaining) @ 10 μM of N#Cc1cccc(C(=O)N[C@H]2C[C@@H](n3cnc4c(Nc5ccc(N6CCN(CC7CCN(C(=O)CNc8cccc9c8C(=O)N(C8CCC(=O)NC8=O)C9=O)CC7)CC6)cc5)ncnc43)C2)n1 (some centres unmarked) [Compound 420] = 0/0/0%

compound Cc1cccc(C(=O)NC2CC(n3cnc4c(NCCC5CCN(CC6CCN(C(=O)CNc7cccc8c7C(=O)N([C@H]7CCC(=O)NC7=O)C8=O)CC6)CC5)ncnc43)C2)n1 (some centres unmarked) [Compound 123] , Enzyme degradation CDK9 (% remaining) @ 10 μM observed: 0/0/0%

According to the records, this compound O=C1CC[C@H](N2C(=O)c3cc(F)c(N4CCC(CCN5CCN(c6ccc(Nc7ncnc8c7ncn8C7CC(NC(=O)c8c(Cl)cccc8Cl)C7)cc6)CC5)CC4)cc3C2=O)C(=O)N1 (some centres unmarked) [Compound 406] displays Enzyme degradation CDK9 (% remaining) @ 10 μM of 0/0/0%

Entry N#Cc1cccc(C(=O)N[C@H]2C[C@@H](n3cnc4c(Nc5ccc(N6CCN(CC7CCN(C(=O)C8CCN(c9ccc%10c(c9)C(=O)N(C9CCC(=O)NC9=O)C%10=O)CC8)CC7)CC6)cc5)ncnc43)C2)n1 (some centres unmarked) [Compound 455] ; Enzyme degradation CDK9 (% remaining) @ 10 μM = 0/0/0%

Form: compound = Cc1cccc(C(=O)NC2CC(n3cnc4c(Nc5ccc(N6CCN(CCC7CCN(c8cc9c(cc8F)C(=O)N([C@H]8CCC(=O)NC8=O)C9=O)CC7)CC6)cc5)ncnc43)C2)n1 (some centres unmarked) [Compound 381] ; Enzyme degradation CDK9 (% remaining) @ 10 μM = 0/0/0%

The recorded Enzyme degradation CDK9 (% remaining) @ 10 μM for entry Cc1cccc(C(=O)NC2CC(n3cnc4c(Nc5ccc(N6CCN(CC7CCN(c8ccc9nnn([C@H]%10CCC(=O)NC%10=O)c(=O)c9c8)CC7)CC6)cc5C)ncnc43)C2)n1 (some centres unmarked) [Compound 478] equals 20/20/20%

The compound O=C1CC[C@H](N2C(=O)c3cccc(N4CCC(CN5CCN(c6ccc(Nc7ncnc8c7ncn8[C@H]7C[C@@H](NC(=O)c8c(Cl)cccc8Cl)C7)cc6)CC5)CC4)c3C2=O)C(=O)N1 [Compound 167] showed Enzyme degradation CDK9 (% remaining) @ 10 μM equal to 0/0/0%

Entry source: patent US20260125382A1
